- System: PC-3 prostate
- run_description: NCI tumour cell line growth inhibition, 48 h
result_type: GI50

Some solved cases for reference:
{"columns": ["compound", "GI50"],
 "data": [
  ["Cc1cn2c(/C=C3\\C(=O)Nc4ccc(O)cc43)c(-c3ccc(Cl)cc3)nc2s1", "22.2 µM"],
  ["Cc1ccc(/C=C/c2c(C(=O)/C=C/c3ccc(C(F)(F)F)cc3)c(C)nc3ccccc23)cc1", "1.64 µM"],
  ["Cc1nc2cnc(N)c(C#Cc3cncc(C(=O)Nc4ccc(CN5CCN(C)CC5)c(C(F)(F)F)c4)c3)c2nc1C", "1.48 µM"],
  ["CCCCCCNC(=O)c1nc(-c2ccccc2)oc1Cc1ccc(OP(=O)(O)O)cc1", "17.9 µM"],
  ["C=CCc1cccc(/C=N/NC(=O)CN2CCN(Cc3ccccc3)CC2)c1O", "3.45 µM"],
  ["Cc1csc(Nc2nc(-c3cccc(Br)c3)nc(C(Cl)(Cl)Cl)n2)n1", "1.92 µM"]
]}

**Q:** Form entry - test system: PC-3 prostate; read-out: GI50; compound: C=CCCCCCCCCCCC1(O)C=CC2=[N+](CCCCCN=C(N)N)CCCN21 (stereo unspecified)
**A:** 0.466 µM

**Q:** What GI50 appears in the records for this compound with PC-3 prostate? CCN(CC)c1nc(-c2ccc(Cl)cc2Cl)nc2ccccc12
**A:** 24.1 µM

**Q:** API: value(readout=GI50, system=PC-3 prostate) for record C=CC(=O)N1CCC(C2CCNc3c(C(N)=O)c(-c4ccc(Oc5ccccc5)cc4)nn32)CC1 (stereo unspecified)
**A:** 22 µM

**Q:** Identify the measured GI50 of COc1ccccc1N1CCN(CCCn2c(=O)c3c(OC)nc(C)cc3c(=O)n2-c2ccccc2)CC1 for PC-3 prostate.
**A:** > 100 µM

**Q:** Which measured GI50 belongs to Nc1nccc2c1ccn2-c1ccc(NC(=O)c2ccc(N3CCOCC3)c(C(F)(F)F)c2)cc1 , tested on PC-3 prostate?
**A:** 0.499 µM

====

- System: SNB-19 CNS
- run_description: NCI tumour cell line growth inhibition, 48 h
Catalogue of compounds with associated TGI

{"columns": ["molecule", "TGI"],
 "data": [
  ["O=S(=O)(O)c1ccc(N=Nc2ccc(N=Nc3c(O)ccc4ccccc34)cc2)cc1", "> 100 µM"],
  ["Nc1nc(N)c(N=Nc2ccc([As](=O)(O)O)cc2)c(=O)[nH]1", "> 100 µM"],
  ["Cc1nc2cnc(N)c(C#Cc3cncc(C(=O)Nc4ccc(CN5CCN(C)CC5)c(C(F)(F)F)c4)c3)c2nc1C", "16.9 µM"]
]}

**Q:** I would be grateful if you could share the reported TGI for CS(=O)(=O)CCCn1c(=O)c(Oc2ccc(F)cc2F)cc2cnc(NC3CCOCC3)nc21 .
**A:** > 25 µM

**Q:** Could you tell me which TGI is on file for Oc1ccc(-c2nc(-c3ccc(F)cc3)c(-c3ccc4ccccc4n3)[nH]2)cc1 ?
**A:** 37.1 µM

**Q:** Recorded TGI for Cc1ccc(-c2nc3ccc([N+](=O)[O-])cc3[nH]2)cc1 , please?
**A:** > 100 µM

====

- Tested on: SF-268 CNS
- run_description: NCI tumour cell line growth inhibition, 48 h
Reported values of GI50 for individual entries

{"columns": ["compound", "target_of_assay", "result_type", "observed_measurement"],
 "data": [
  ["N#C/C=C(\\c1ccc([N+](=O)[O-])cc1)n1nnc2cc(Cl)c(Cl)cc21", "SF-268 CNS", "GI50", "3.58 µM"]
]}

**Q:** Which GI50 is reported for this compound? CCN(CC)c1nc(-c2ccc(Cl)cc2Cl)nc2ccccc12
**A:** 23.1 µM

**Q:** GI50 lookup needed for COc1cc(-c2nn(-c3cccc(NC(=O)Nc4ccc(Cl)c(Cl)c4)c3)cc2-c2ccncc2)ccc1Cl , thanks.
**A:** 1.51 µM

**Q:** Consider the compound shown here: O=c1cc2oc3cc(O)c(O)cc3c(-c3ccccc3O)c-2cc1O What is its recorded GI50?
**A:** 5.53 µM

**Q:** Entry under review: COc1ccccc1N1CCN(CCCn2c(=O)c3c(OC)nc(C)cc3c(=O)n2-c2ccccc2)CC1 . Reported GI50?
**A:** > 100 µM

**Q:** Requested read-out: GI50. Entry: Ic1ccc(-n2nnnc2-c2cnoc2-c2ccccc2)cc1
**A:** 54 µM

**Q:** Any idea what GI50 was measured for N=c1ccn2c(n1)OC1C(O)C(CO)OC12 (stereo not given) ?
**A:** 2.41 µM

**Q:** Which value of GI50 has been reported for C=CC(=O)N1CCC(C2CCNc3c(C(N)=O)c(-c4ccc(Oc5ccccc5)cc4)nn32)CC1 (stereo not given) in the records?
**A:** 6.98 µM

**Q:** Returns the measured GI50 for the input compound. Input: O=c1[nH]c(=O)n(C2CC(O)C(CO)O2)cc1CO (stereo not given)
**A:** > 100 µM

**Q:** Requested field: GI50. Item: CCN(CC)CCOc1ccc(/C=C2\CC3C4CC=C5C[C@@H](O)CC[C@]5(C)C4CC[C@]3(C)C2=O)cc1OC (stereo not given in full)
**A:** 7.39 µM
